Source of measurements: the NIST ThermoML archive (doi:10.1016/j.jct.2010.12.010)

testConditions: 313.15 K; Liquid; Manometric method
quantityKind: vapor or sublimation pressure (kPa)
Numbers only, in kPa.

Consider the reported vapor or sublimation pressure for these compounds:
NCCN [ethane-1,2-diamine] = 3.937
CC(N)CN (stereo not given) [1,2-propanediamine] = 3.535
NCCCCN [1,4-butanediamine] = 0.5322
NCCCN [1,3-propanediamine] = 1.688

Next:
Looking up O [water] , I found its vapor or sublimation pressure recorded as 7.284

====

testConditions: 293.15 K; Liquid; Manometric method
quantityKind: vapor or sublimation pressure (kPa)
Answers are plain numbers, in kPa.

Please give vapor or sublimation pressure for each item listed below.
1. NCCN [ethane-1,2-diamine]
2. NCCCN [1,3-propanediamine]
3. NCCCCN [1,4-butanediamine]
4. CC(N)CN (stereo not given) [1,2-propanediamine]
5. O [water]

[reply]
1: 1.139; 2: 0.5332; 3: 0.2012; 4: 1.085; 5: 2.277
